Tested on: HeLa cells
Experiment: Antiproliferative SRB assay
Type: cell-based
Conditions: 48 h, read-out: IC50 ± SD in HeLa
endpoint: pIC50
Expect pIC50 as a plain number equal to -log10 of the molar concentration.

Prompt line: Identify pIC50 associated with the molecule COc1ccc(/C=C\c2cc(OC)c(OC)c(OC)c2)cc1O [CA-4, combretastatin A-4, reference compound]
Response line: 8.25

----------
Test system: A431 cancer cells
Assay: A431 cytotoxicity (cell proliferation)
Format: cell-based, human
endpoint: pIC50
Expect pIC50 as a plain number equal to -log10 of the molar concentration.

Prompt line: Identify pIC50 associated with the compound "CCCOc1ccc(N(C)c2nc(C)nc3oc(C)cc23)cc1"
Response line: 7.03
